target: cynomolgus TSLPR on Ba/F3-cTSLPR-cIL7Ra cells (cynomolgus monkey); assay: cell-based or functional assay
Entries and their measured IC50 Assay III, Ba/F3-cyTSLPR proliferation follow.
measured attribute: IC50 Assay III, Ba/F3-cyTSLPR proliferation

mouse antibody 49A5 (antibody, mouse IgG1, V domains shown, Mouse IgG1/kappa from hybridoma; also called m49A5; LB55.49A5.2F9) VH: QVQLKQSGPGLVQPSQSLSITCTVSGFSLTTYGVHWVRQSPGKGLEWLGVIWRGGNTAYNPAFMSRLSITKDNSKSQVFFKMNSLQADDTAIYHCAKKSYYGYHAMGYWGQGTSVTVSS VL: DIQMTQTTSSLSASLGDRVTINCRASQDISNYLNWYQQNPDGTVKLLIYYTSRLHSGVPSRFSGSGSGTDYSLTISNLEQEDIATYFCQQANTLPWTFGGGTKLEIKR	0.246 µg/mL
mouse antibody 61C11 (antibody, mouse IgG2a, V domains shown, Mouse IgG2a/kappa from hybridoma; also called m61C11; LB55.61C11.2B1) VH: QAYLQQSGAELVRSGASVKMSCKASGYTFTSYNLHWIKLTPGQGLEWIGYIYPGLNGTLYNQKFRGKATLTADTSSSTAYMQISSLTSEDSAVYFCARSDYGKAWFAYWGRGTLVTVSA VL: DILLTQSPAILSVSPGERVSFSCRASQSIATKIHWYQQRTDHSPRLLIQLGSESISGIPSRFSGSGSGTDFTFTINSVESEDIAVYYCQQSNRYPYTFGGGTKLEVKR	~15 µg/mL
mouse anti human TSLPR antibody 13H5 (antibody, mouse IgG1, V domains shown, Mouse IgG1/kappa purified from hybridoma supernatant; also called m13H5; LB55.13H5.2C3) VH: QVLLKQSGPSLVQPSQSLSITCTVSGFSLSRYGVHWVRQSPGKGLEWLGVIWRSGSTDYNAAFMSRLSITQDNSKSQVFFNMNSLQSDDSAIYYCAKKAFYVMDYWGQGTSVTVSS VL: DIQMTQTTSSLSASLGDRVTISCRASQDISIYLNWYQQKPDGTVKLLIYYTSRLHSGVPSRFSGSGSGTNFSLTITNLEEEDIATYFCQQGNTLPWTFGGGTKLEIKR	0.0134 µg/mL
mouse anti-human TSLPR antibody 70E8 (antibody, mouse IgG1, V domains shown, Mouse IgG1/kappa from hybridoma; also called m70E8; LB55.70E8.1A8) VH: DVQLQESGPDLVKPSQSLSLTCTVTNYSITSGYSWPWIRQFPGNKLEWLGYIHSSGRTNYNPSLKSRISITRDTSKNQFFLQLNSVTPEDTATYYCARSQLGLVFFAYWGQGTLVTVSA VL: DIVMTQSQKFMSTSVGDRVSVTCKASQSVGANVAWYQQIPGHSPKVLIYSASYRFSGVPDRFTGSGSGTDFTLTISNVQSEDLAEYFCQQYNSYPYTFGGGTKLEIRR	~90 µg/mL
mouse antibody 54A11 (antibody, mouse IgG2a, V domains shown, Mouse IgG2a/kappa from hybridoma; also called m54A11; LB55.54A11.3D6) VH: EVQLQQSGPELVKPRASVKISCKASGYSFTGYYIHWVKQSHVKSLEWIGRINPYNGATIYNPNFKDKASLTVDKSSSTAFMEVHSLTSEDSAVYYCARSYGYVNYFDYWGQGTTLTVSS VL: EIVLTQSPATLSVTPGDSVSLSCRASQSISNNLHWYHQKSHESPRLLIKFGFQSISGIPSRFSGSGSGTDFTLSINSVETEDFGMYFCQQTNSWLTFGAGTKLELKR	0.137 µg/mL

Hey, just so you know, these numbers are from patent US20110020369A1.
